Reported area under the dose-response curve is given for each of the following compounds.
Test system: SB.mhdgc-1
Assay: area under the dose-response curve of % viability (trapezoidal, 11 doses) (% viability x log10 concentration); higher = less cytotoxic
Conditions: SB.mhdgc-1 (hereditary c.1380delA CDH1 gastric cancer)
Enter a number only.

Summary: O=c1oc2cc(O)ccc2s1 [Tioxolone] (top concentration 46.0829 µM) , SB.mhdgc-1, area under the dose-response curve = 577

New cases:
The recorded area under the dose-response curve with SB.mhdgc-1 for CC(C)(C)NC(=O)[C@@H]1CN(Cc2cccnc2)CCN1C[C@@H](O)C[C@@H](Cc1ccccc1)C(=O)N[C@H]1c2ccccc2C[C@H]1O.O=S(=O)(O)O [Indinavir] (top concentration 46.0829 µM) was 347

Record for CC(=O)N1CCN(c2ccc(OCc3nn(C)c(C)c3-c3cccc4c(CCCOc5cccc6ccccc56)c(C(=O)O)n(Cc5cccnc5)c34)cc2)CC1 (top concentration 46.0829 µM) under target or system SB.mhdgc-1: area under the dose-response curve reported as 321

* * *

Tested on: SB.msgc-1
Experiment: area under the dose-response curve of % viability (trapezoidal, 11 doses) (% viability x log10 concentration); higher = less cytotoxic
Conditions: SB.msgc-1 (sporadic gastric cancer)
Readout Name: area under the dose-response curve
The answer should be a number; do not append a unit.

These recorded examples may help you get a feel for the data.
Considering CC(C)Cc1ccc(C(C)C(=O)O)cc1 (stereo not drawn) [Ibuprofen lysine] (top concentration 23.0415 µM) , its area under the dose-response curve with SB.msgc-1 was recorded as 408

Measured area under the dose-response curve for this entry NC(=O)c1cccc2nc(-c3ccc([C@H]4CCCN4)cc3F)[nH]c12 (top concentration 46.0829 µM) on SB.msgc-1: 477

Next molecule, area under the dose-response curve to be filled in.
Known value: SB.msgc-1 area under the dose-response curve of the molecule CC(C)[C@@H](N(CCCN)C(=O)C1=CC=C(C)C=C1)C/2=N/C3=CC(=CC=C3C(=O)N2CC4=CC=CC=C4)Cl [Ispinesib] (top concentration 46.0829 µM) equals 204

* * *

The reader will find reported viability values listed item by item below.
Tested on: SB.mhdgc-1
Assay: viability at highest tested concentration (MAXR) relative to DMSO; higher = less cytotoxic
Settings: SB.mhdgc-1 (hereditary c.1380delA CDH1 gastric cancer)
Counter-ions that a name gives are not always drawn.
Answer with a number only, understood to be in %.

CCCc1cc(C(N)=S)ccn1 [Protionamide] (top concentration 46.0829 µM) has a reported viability of 150

Further cases:
molecule Fc1cc(-c2cccc3ncc(-c4cnn(C5CCNCC5)c4)nc23)cc(F)c1CN1CCOCC1 [NVP-BSK805] (top concentration 46.0829 µM) , viability observed: 3.9

Entry CC[C@@]1([C@@H]2O[C@@H]([C@H]3O[C@@](O)(CO)[C@H](C)C[C@@H]3C)C[C@@H]2C)CC[C@H]([C@]2(C)CC[C@]3(C[C@H](O)[C@@H](C)[C@@H]([C@@H](C)[C@@H](OC)[C@H](C)C(=O)[O-])O3)O2)O1 [Monensin sodium salt] (top concentration 23.0415 µM) ; viability = 26.8

Form field viability, entry COc1ccc(C(C)=O)c(O)c1 [Paeonol] (top concentration 46.0829 µM) : 57

Please fill in: viability reported for Clc1ccc(C(Cn2ccnc2)OCc2c(Cl)cccc2Cl)c(Cl)c1 (configuration not stated) [Isoconazole nitrate] (top concentration 46.0829 µM) = 50.2

Noted for CCn1c(-c2nonc2N)nc2c(C#CC(C)(C)O)ncc(OC[C@H]3CCCNC3)c21 (top concentration 46.0829 µM) : its viability reads 20

The reported viability of the molecule Cc1c(-c2cccc3c(CCCOc4cccc5ccccc45)c(C(=O)O)n(Cc4cccnc4)c23)c(COc2ccc(N3CCN([S+](=O)([O-])N(C)C)CC3)cc2)nn1C (top concentration 46.0829 µM) was 63.8

viability for CCCN[C@H]1CCc2nc(N)sc2C1 [Pramipexole hydrochloride] (top concentration 46.0829 µM) is 85.9

viability reported for this molecule CCCCCCCCCCCCCCCCCCCCCCO [Docosanol] (top concentration 46.0829 µM) : 90.6

Form: molecule = CN(C)CCc1c[nH]c2ccc(C[C@H]3COC(=O)N3)cc12 [Zolmitriptan] (top concentration 46.0829 µM) ; viability = 68.4

The recorded viability for C[C@]\12CC[C@H](O)CC1=C/CC3C2CC[C@@]\4(C)C3C\C=C4[N]5C=NC6=C5C=CC=C6 (some centres not stated) [Galeterone] (top concentration 46.0829 µM) is 12.2

Recorded viability (molecule CCCCc1oc2ccc(NS(C)(=O)=O)cc2c1C(=O)c1ccc(OCCCN(CCCC)CCCC)cc1 [Dronedarone] (top concentration 46.0829 µM) ): 3.4

Hey, just so you know, these numbers are from the supplement of paper PMC5412046.
